B1: Azoarcus group I ribozyme (parent)
chain: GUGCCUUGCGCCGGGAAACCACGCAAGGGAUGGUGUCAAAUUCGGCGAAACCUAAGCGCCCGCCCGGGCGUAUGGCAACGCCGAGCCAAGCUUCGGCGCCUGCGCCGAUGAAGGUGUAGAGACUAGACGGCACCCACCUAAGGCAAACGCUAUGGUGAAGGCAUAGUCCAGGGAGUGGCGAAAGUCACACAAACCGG

- Variants of: B1
- experiment notes: reverse-splicing fitness (ratio to wild type); higher = more active; in vitro selection; Mg2+ level not given
Can you tell me reverse-splicing fitness for the items I'm about to list?
Quick one: just the number, no unit, thanks!

### Prompt May I ask what reverse-splicing fitness has been recorded for C82A A111U A120G A145G C150A C169U ?
### Response 0.00929

### Prompt May I ask what reverse-splicing fitness has been recorded for A111G A145C C150U U176C ?
### Response 0.491

### Prompt May I ask what reverse-splicing fitness has been recorded for C82U A111G A120C A145G C150A C169U U176A ?
### Response 0.015

### Prompt May I ask what reverse-splicing fitness has been recorded for C82A A111U A120C A145C C150U U176G ?
### Response 0.00643

### Prompt May I ask what reverse-splicing fitness has been recorded for C82A A111U A120G A145C C150U C169G U176A ?
### Response 0.0224

### Prompt May I ask what reverse-splicing fitness has been recorded for A111U A120G A145G C150G C169U U176C ?
### Response 0.015

### Prompt May I ask what reverse-splicing fitness has been recorded for C82G A111U A145U C150U C169U U176C ?
### Response 0.0136

### Prompt May I ask what reverse-splicing fitness has been recorded for C82U A111C A120U C150U U176G ?
### Response 0.00332

### Prompt May I ask what reverse-splicing fitness has been recorded for A111G A120C A145U C150U C169U ?
### Response 0.173

### Prompt May I ask what reverse-splicing fitness has been recorded for A111C A120G A145C C150G U176C ?
### Response 0.0168

### Prompt May I ask what reverse-splicing fitness has been recorded for C82A A111U A145U C150G C169G U176C ?
### Response 0.00625

### Prompt May I ask what reverse-splicing fitness has been recorded for C82A A120U C150G C169U U176G ?
### Response 0.00296

### Prompt May I ask what reverse-splicing fitness has been recorded for A111C A120G A145G C150U C169G ?
### Response 0.167

### Prompt May I ask what reverse-splicing fitness has been recorded for C82A A111C A120G C150U C169A U176G ?
### Response 0.00621

### Prompt May I ask what reverse-splicing fitness has been recorded for C82U A111C A145G C150U C169A U176A ?
### Response 0.0141

### Prompt May I ask what reverse-splicing fitness has been recorded for C82A A111U A120U C150U C169A U176C ?
### Response 0.00344

### Prompt May I ask what reverse-splicing fitness has been recorded for C82U A111U A120C C150A U176A ?
### Response 0.0126

### Prompt May I ask what reverse-splicing fitness has been recorded for C82G A111C A120G A145G C150A C169U ?
### Response 0.00904

### Prompt May I ask what reverse-splicing fitness has been recorded for C82A A120C C150G ?
### Response 0.0157

### Prompt May I ask what reverse-splicing fitness has been recorded for C82U A145G C150A C169G U176G ?
### Response 0.0053

### Prompt May I ask what reverse-splicing fitness has been recorded for A111G A120C A145G C169U U176G ?
### Response 0.00613

### Prompt May I ask what reverse-splicing fitness has been recorded for C82A A111U A120G A145U C150A C169U U176G ?
### Response 0.00491

### Prompt May I ask what reverse-splicing fitness has been recorded for C82A A111U A145G C150A C169A U176A ?
### Response 0.0197

### Prompt May I ask what reverse-splicing fitness has been recorded for C82A A111C A120U A145G C150U C169G U176G ?
### Response 0.00299

### Prompt May I ask what reverse-splicing fitness has been recorded for A111C A145G C150G U176C ?
### Response 0.13

### Prompt May I ask what reverse-splicing fitness has been recorded for A111U A120U A145G C150G C169A U176C ?
### Response 0.00774

### Prompt May I ask what reverse-splicing fitness has been recorded for C82A A111U A145G C150G C169U U176A ?
### Response 0.0134

### Prompt May I ask what reverse-splicing fitness has been recorded for C82U A111C A120U A145U C150G U176C ?
### Response 0.00509

### Prompt May I ask what reverse-splicing fitness has been recorded for C82A A111U A120G A145G C150U ?
### Response 0.0133

### Prompt May I ask what reverse-splicing fitness has been recorded for A145G C169U U176C ?
### Response 0.174

### Prompt May I ask what reverse-splicing fitness has been recorded for C82U A111U A120U A145U C150U ?
### Response 0.0175

### Prompt May I ask what reverse-splicing fitness has been recorded for C82A A120G C150G ?
### Response 0.00747

### Prompt May I ask what reverse-splicing fitness has been recorded for C82U A111C C150U C169U U176G ?
### Response 0.00713

### Prompt May I ask what reverse-splicing fitness has been recorded for C82U A111U A120C A145U C169U ?
### Response 0.0107
